- systemName: Voltage-gated inwardly rectifying potassium channel KCNH2 (Homo sapiens, UniProt Q12809)
- Sequence (Q12809 whole entry): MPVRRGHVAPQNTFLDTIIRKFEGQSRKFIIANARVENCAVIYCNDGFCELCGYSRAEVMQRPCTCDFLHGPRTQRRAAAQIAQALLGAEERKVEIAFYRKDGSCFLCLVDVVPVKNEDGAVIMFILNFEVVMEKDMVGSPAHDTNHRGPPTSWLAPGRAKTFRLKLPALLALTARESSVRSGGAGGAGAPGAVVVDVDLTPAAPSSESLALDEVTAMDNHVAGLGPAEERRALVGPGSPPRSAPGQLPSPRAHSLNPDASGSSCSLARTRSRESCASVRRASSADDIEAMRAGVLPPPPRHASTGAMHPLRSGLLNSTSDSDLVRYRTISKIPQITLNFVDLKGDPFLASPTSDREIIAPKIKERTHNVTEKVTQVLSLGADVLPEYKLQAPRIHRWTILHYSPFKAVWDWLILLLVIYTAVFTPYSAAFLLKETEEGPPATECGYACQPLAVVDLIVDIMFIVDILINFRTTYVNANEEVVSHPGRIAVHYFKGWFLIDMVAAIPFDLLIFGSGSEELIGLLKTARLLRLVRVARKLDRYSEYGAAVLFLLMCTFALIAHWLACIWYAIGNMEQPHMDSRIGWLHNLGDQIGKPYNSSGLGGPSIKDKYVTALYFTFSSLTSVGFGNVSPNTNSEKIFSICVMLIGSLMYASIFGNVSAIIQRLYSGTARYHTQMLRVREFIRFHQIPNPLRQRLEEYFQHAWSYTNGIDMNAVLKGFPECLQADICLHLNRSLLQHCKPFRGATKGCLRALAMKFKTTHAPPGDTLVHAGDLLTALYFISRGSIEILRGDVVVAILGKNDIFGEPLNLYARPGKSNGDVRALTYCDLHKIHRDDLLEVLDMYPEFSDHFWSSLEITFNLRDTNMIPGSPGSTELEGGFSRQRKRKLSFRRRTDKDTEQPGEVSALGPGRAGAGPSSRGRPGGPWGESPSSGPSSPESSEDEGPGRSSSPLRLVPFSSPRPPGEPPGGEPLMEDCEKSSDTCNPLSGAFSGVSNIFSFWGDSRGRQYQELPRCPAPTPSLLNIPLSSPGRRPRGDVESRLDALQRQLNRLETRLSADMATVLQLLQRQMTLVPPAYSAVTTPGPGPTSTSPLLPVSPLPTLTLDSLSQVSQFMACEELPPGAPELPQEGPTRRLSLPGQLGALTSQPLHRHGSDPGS
- experiment: Inhibition of human ERG expressed in CHO cells by patch clamp assay
- Format: cell-based
In this section, each of the molecules is paired with its reported IC50.
recordedEndpoint: IC50

O=C(CC1CCN(Cc2ccn(-c3ccc(C(F)(F)F)cc3)c2)CC1)NC(c1ccc(F)cc1)c1ccc[n+]([O-])c1 (stereo not given) | > 31.6 µM
O=C(CC1CCN(Cc2ccn(-c3ccc(C(F)(F)F)cc3)c2)CC1)NC(c1ccccc1)c1ccccn1 (stereo not given) | 2.3 µM
O=C(NC1CCN(Cc2ccn(-c3ccc(C(F)(F)F)cc3)c2)CC1)NC(c1ccccc1)c1ccccc1 | 3.8 µM
O=C(CC1CCN(Cc2ccn(-c3ccc(C(F)(F)F)cc3)c2)CC1)N1CCN(C(=O)N2CCCC2)CC1 | 14 µM
O=C(CC1CCN(Cc2ccn(-c3ccc(C(F)(F)F)cc3)c2)CC1)NC(c1ccc(F)cc1)c1c[nH]c(=O)c(Cl)c1 (stereo not given) | > 31.6 µM

###

- systemName: Sodium channel protein type 5 subunit alpha (Homo sapiens)
- Sequence (Q14524 whole entry): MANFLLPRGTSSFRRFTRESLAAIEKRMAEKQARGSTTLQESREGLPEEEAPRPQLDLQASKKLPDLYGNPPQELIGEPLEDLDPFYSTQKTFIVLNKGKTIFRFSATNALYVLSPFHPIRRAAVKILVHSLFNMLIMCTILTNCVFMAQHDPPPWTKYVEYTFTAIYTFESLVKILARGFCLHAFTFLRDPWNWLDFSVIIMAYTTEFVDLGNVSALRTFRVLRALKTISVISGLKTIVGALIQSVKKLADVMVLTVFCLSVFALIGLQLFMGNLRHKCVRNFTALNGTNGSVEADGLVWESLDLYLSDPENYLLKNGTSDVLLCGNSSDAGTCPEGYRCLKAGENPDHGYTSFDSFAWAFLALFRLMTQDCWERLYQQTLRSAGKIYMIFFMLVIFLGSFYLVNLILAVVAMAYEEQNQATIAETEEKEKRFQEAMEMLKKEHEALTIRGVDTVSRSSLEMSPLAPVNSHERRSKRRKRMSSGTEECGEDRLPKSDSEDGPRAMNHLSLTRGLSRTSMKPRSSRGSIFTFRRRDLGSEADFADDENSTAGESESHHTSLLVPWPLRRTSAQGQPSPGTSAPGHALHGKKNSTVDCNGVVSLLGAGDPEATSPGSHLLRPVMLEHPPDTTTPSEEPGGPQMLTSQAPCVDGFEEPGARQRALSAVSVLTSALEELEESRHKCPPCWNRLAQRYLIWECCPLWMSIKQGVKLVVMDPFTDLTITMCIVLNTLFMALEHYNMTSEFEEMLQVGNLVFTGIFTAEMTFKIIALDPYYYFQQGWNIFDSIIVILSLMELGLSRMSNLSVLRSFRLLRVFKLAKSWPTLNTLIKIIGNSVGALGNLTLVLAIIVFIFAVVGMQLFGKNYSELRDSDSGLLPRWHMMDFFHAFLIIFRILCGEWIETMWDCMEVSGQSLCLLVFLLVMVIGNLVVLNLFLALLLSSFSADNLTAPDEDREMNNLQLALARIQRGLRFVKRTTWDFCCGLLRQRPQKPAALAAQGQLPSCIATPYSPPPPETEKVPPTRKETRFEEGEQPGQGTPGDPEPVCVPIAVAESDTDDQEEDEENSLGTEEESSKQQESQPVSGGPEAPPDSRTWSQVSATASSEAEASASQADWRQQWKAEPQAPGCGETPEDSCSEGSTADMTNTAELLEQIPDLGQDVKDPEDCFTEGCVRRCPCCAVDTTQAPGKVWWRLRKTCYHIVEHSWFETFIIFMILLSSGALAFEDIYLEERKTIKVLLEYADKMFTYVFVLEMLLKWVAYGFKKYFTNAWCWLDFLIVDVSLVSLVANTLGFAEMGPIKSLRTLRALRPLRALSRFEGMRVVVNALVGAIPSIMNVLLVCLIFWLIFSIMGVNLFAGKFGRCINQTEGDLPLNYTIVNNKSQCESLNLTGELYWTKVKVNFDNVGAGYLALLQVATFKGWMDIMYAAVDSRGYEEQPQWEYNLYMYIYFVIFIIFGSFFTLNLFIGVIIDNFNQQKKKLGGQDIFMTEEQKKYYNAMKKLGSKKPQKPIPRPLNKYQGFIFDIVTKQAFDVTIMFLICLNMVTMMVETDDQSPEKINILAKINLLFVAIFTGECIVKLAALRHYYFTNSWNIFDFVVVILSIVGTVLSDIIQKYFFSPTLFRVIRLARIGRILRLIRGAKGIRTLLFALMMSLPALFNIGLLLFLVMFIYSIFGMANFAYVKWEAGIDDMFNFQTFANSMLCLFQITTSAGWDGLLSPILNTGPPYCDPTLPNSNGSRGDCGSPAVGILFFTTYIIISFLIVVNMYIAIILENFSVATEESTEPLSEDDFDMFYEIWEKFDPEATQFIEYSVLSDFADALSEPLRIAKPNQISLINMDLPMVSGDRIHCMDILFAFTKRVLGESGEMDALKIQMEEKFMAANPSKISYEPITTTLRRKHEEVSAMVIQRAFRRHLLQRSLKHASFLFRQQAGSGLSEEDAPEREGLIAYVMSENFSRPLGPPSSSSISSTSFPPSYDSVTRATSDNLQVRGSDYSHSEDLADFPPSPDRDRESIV
- experiment: Inhibition of NaV1.5 sodium channel expressed in CHO cells by patch clamp assay
recordedEndpoint: IC50

O=C(CC1CCN(Cc2ccn(-c3ccc(C(F)(F)F)cc3)c2)CC1)NC(c1ccc(F)cc1)c1c[nH]c(=O)c(Cl)c1 (stereo unspecified) | > 31.6 µM

###

- systemName: Melanin-concentrating hormone receptor 1 (Homo sapiens, UniProt Q99705)
- Sequence (Q99705 whole entry): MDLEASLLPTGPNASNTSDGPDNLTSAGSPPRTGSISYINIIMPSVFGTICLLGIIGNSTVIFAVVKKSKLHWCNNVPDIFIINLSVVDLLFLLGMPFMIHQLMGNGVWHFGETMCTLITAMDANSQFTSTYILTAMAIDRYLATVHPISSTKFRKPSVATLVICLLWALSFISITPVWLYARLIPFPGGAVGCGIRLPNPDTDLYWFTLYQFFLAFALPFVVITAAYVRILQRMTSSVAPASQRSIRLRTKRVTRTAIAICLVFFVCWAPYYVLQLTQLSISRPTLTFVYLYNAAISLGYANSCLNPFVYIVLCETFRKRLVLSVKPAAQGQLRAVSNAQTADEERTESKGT
- experiment: Displacement of [125I]MCH from human MCHR1 expressed in HEK293 cells
- Assay type: cell-based
recordedEndpoint: IC50 (nM)

O=C(CC1CCN(Cc2ccn(-c3ccc(C(F)(F)F)cc3)c2)CC1)NC(c1ccc(F)cc1)c1ccc[n+]([O-])c1 (stereo not drawn) | 21
COCC(O)CN(Cc1ccc(F)cc1)C(=O)CC1CCN(Cc2ccc(-c3ccc(Cl)cc3)o2)CC1 (stereo not drawn) | 150
O=C(CN1CCN(Cc2ccn(-c3ccc(C(F)(F)F)cn3)c2)CC1)NC(c1ccc(F)cc1)c1ccc(F)cc1 | 55
